The reported measurements were obtained from ChEMBL document CHEMBL1201862.

# Test system: SF-295
# method-notes: NCI tumour cell line growth inhibition, 48 h
Active and inactive are the calls of the source. Rule as the data show it: active = GI50 up to about 1.1 µM and inactive = higher.
Bench note: report the call from 1 (yes) for active, 0 (no) for inactive

O=C(CN(Cc1ccccc1)Cc1ccccc1)N1CCc2c([nH]c3ccccc23)C1c1cccnc1 (stereo not given): 0 (no)
Cc1ccc2c(O)cc(-c3ccc(C)s3)nc2n1: 1 (yes)

(Q) For CC1=NN(c2cccc(Cl)c2)C2(C1=Cc1ccc(N(C)C)cc1)C(Cl)C(=O)N2c1nc2ccccc2s1 (stereo not given) , what call appears in the results of this test?
(A) 0 (no)

(Q) For C=C1CC[C@@]2(OC1)OC1C[C@H]3[C@@H]4CC=C5C[C@@H](O)CC(OC6OCC(OC(=O)[C@@H](O)[C@@H](C)CC)C(OC(C)=O)C6OC6OC(C)C(O)C(O)C6O)[C@]5(C)[C@H]4CC[C@]3(C)C1[C@@H]2C (stereo not given in full) , what call appears in the results of this test?
(A) 0 (no)

(Q) For NC1(C(=O)O)CCCC1C(=O)O (stereo not given) , what call appears in the results of this test?
(A) 0 (no)

(Q) For COC(=O)C1(C(=O)OC)CC(=O)c2c(OC(=O)c3cccc(OC)c3C#N)ccc(OC(=O)c3cccc(OC)c3C#N)c2C1 , what call appears in the results of this test?
(A) 0 (no)

(Q) For c1ccc2c(c1)Cn1c-2nc2ccccc21 , what call appears in the results of this test?
(A) 0 (no)

(Q) For CC1C(OS(=O)(=O)c2ccc3nc(S)sc3c2)CC2C3(C)CCC2(C(C)C(=O)O)C(O)C13 (stereo not given) , what call appears in the results of this test?
(A) 0 (no)

(Q) For CC1=CCC[C@H]2[C@](C)(CC3=CC(=O)C(Sc4ccccc4)=CC3=O)[C@@H](C)CC[C@]12C , what call appears in the results of this test?
(A) 0 (no)

(Q) For O=[N+]([O-])c1ccc2c(c1)n1c(N3CCCC3)[n+]3ccccc3c1c1c3ccccn3c(N3CCCC3)[n+]21.[O-][Cl+3]([O-])([O-])[O-].[O-][Cl+3]([O-])([O-])[O-] , what call appears in the results of this test?
(A) 0 (no)

(Q) For N#Cc1c(N)nc(Sc2ccccc2N)c(C#N)c1-c1ccc(Cl)cc1 , what call appears in the results of this test?
(A) 0 (no)

(Q) For Oc1ccc2ccccc2c1/N=N/c1ccc(F)cc1 , what call appears in the results of this test?
(A) 0 (no)

(Q) For Cc1cc(OCc2nnc3sc(NC(=O)c4ccccc4)nn23)ccc1Cl , what call appears in the results of this test?
(A) 0 (no)

(Q) For Cc1ccc(C)n1-n1c(-c2ccccc2)n[nH]c1=O , what call appears in the results of this test?
(A) 0 (no)

(Q) For O=C(CCl)Nc1cc(Cl)c(Cl)cc1Cl , what call appears in the results of this test?
(A) 0 (no)

(Q) For CCOC(=O)P(=O)(O)c1ccc(N(C)Cc2ccccc2)cc1 , what call appears in the results of this test?
(A) 0 (no)

(Q) For Cc1c2cc[n+](CCN3CCCCC3)cc2c(C)c2c1[nH]c1ccc(O)cc12 , what call appears in the results of this test?
(A) 0 (no)

(Q) For CC(NC1=NCCO1)c1ccccc1Cl (stereo not given) , what call appears in the results of this test?
(A) 0 (no)

(Q) For CO/N=C(\C(=O)N(C)n1cnnc1)c1csc(NC(c2ccccc2)(c2ccccc2)c2ccccc2)n1 , what call appears in the results of this test?
(A) 0 (no)

(Q) For Cc1cccc(/C=N/NC(=S)N2CCCC2)n1 , what call appears in the results of this test?
(A) 1 (yes)

---

# Test system: MDA-MB-231
# method-notes: NCI tumour cell line growth inhibition, 48 h
Active and inactive are the calls of the source. No stated cut-off is given here; in the data, active = GI50 up to about 1.1 µM and inactive = higher. Where a SMILES comes first, the peptide text is derived from it. [ ]: non-standard residue; d: D form. The star is where a group is joined. ξ: configuration not given here. ξPhe(4-NO2) = NC(Cc1ccc([N+](=O)[O-])cc1)C(=O)O; Boc = CC(C)(C)OC(=O)*; OBn = c1ccc(CO*)cc1
readout-label: GI50

N#CC1=C(N)OC(c2ccc([N+](=O)[O-])cc2)C1(C#N)C#N (stereo unspecified): 16.4 µM (inactive)
O=C1C(Cl)=C(N(C(=O)c2ccccc2)C(=O)c2ccccc2)C(=O)c2ccccc21: 9.71 µM (inactive)
Cc1c2cc[n+](CCN3CCCCC3)cc2c(C)c2c1[nH]c1ccc(O)cc12: 9.93 µM (inactive)
Cc1cccc(/C=N/NC(=S)N2CCCC2)n1: 0.133 µM (active)
O=C(NCc1cccnc1)C(=O)NCc1cccnc1: > 100 µM (inactive)

// for each compound in input: emit GI50
1. C[N+]1(C)CCOC(O)(c2ccccc2)C1 (stereo unspecified)
2. CC(C)(C)OC(=O)NC(Cc1ccc([N+](=O)[O-])cc1)C(=O)NCC(=O)OCc1ccccc1 (stereo unspecified) (Boc-[ξPhe(4-NO2)]-Gly-OBn)
3. COCCOC(=O)c1c(C)[n+]([O-])c2cc(Cl)c(Cl)cc2[n+]1[O-]
4. Cc1cc(N(CCC#N)CCC#N)ccc1C(/N=N\c1ccc(C(=O)O)cc1)=N\NC(=O)c1cc(Cl)ccc1O
5. OCC1OC(O[C@H]2CN3[C@H](O)[C@@H](O)[C@H](O)[C@H]3C2O)C(O)C(O)C1O (stereo partly specified)
6. NCCNCC(O)CO (stereo unspecified)

(A)
["> 100 µM (inactive)", "31.3 µM (inactive)", "24.1 µM (inactive)", "26.6 µM (inactive)", "> 100 µM (inactive)", "> 100 µM (inactive)"]

---

# System: OVCAR-8
# method-notes: NCI tumour cell line growth inhibition, 48 h
Activity calls are given as the source filed them. Cut-off read from the data, not from the text of the source: active = GI50 up to about 1.1 µM and inactive = higher.
Bench note: report the call from class 1 (active), class 0 (inactive)

S=CN1CCCCC1: class 0
COCC(=O)CP(=O)(OC)OC: class 0
CCOC(=O)c1cn(CC)c(=O)n2c1nc1ccccc12: class 0
COc1cc2oc3ccccc3c(=O)c2cc1CSc1ccccc1N: class 0
C=CCC12CCC(=O)C=C1CCC1(C2)OCCO1 (centres undefined): class 0
CCc1nc(N)nc(N)c1-c1ccc(Cl)c([N+](=O)[O-])c1: class 1

(Q) For CCC(C)(C)C(=O)O[C@H]1C[C@@H](C)C=C2C=C[C@H](C)[C@H](CC[C@@H]3C[C@@H](O)CC(=O)O3)[C@H]21 , what call appears in the results of this test?
(A) class 0

(Q) For CSc1cc(Cl)c(C)cc1S(=O)(=O)NC(=O)NNc1ccc(Cl)cc1 , what call appears in the results of this test?
(A) class 0

---

# Tested on: NCI-H226
# method-notes: NCI tumour cell line growth inhibition, 48 h
Activity calls are given as the source filed them. Rule as the data show it: active = GI50 up to about 1.1 µM and inactive = higher.
readout-label: GI50

Reference set (5 entries):
CCOc1ccc(NC(=O)/C(CC(=O)c2c[n+]([O-])c3ccccc3[n+]2[O-])=N\OCCCc2ccccc2)cc1: 44.9 µM (inactive)
COCCN1C2=CCCCC2=Nc2c1nc(N)[nH]c2=O: > 100 µM (inactive)
C/C(=C\C(=N\NC(=N)N)c1ccccc1)c1ccccc1: 1.15 µM (inactive)
CSc1nc(SC)c2cnn(CC3CO3)c2n1 (stereo not given): 17.9 µM (inactive)
c1ccc(CNc2nncc3[nH]cnc23)cc1: > 100 µM (inactive)

// for each compound in input: emit GI50
1. O=C(O)c1nc2cc(C(F)(F)F)ccc2[nH]c1=O
2. CCC(C)C(NC(=O)c1cccc2c(=O)c3ccccc3[nH]c12)C(=O)O (stereo not given)
3. CCOC(=O)C1=C(OC(OCC)C(CC)[Se]c2ccccc2)CCC1 (stereo not given)
4. O=C1CCCc2cc3c(cc21)CC1(C3)Cc2cc3c(cc2C1)C(=O)CCC3
5. CC(C)=CCN(N=O)c1ncnc2[nH]cnc12

(A)
> 100 µM (inactive)
> 100 µM (inactive)
18.3 µM (inactive)
2.7 µM (inactive)
> 100 µM (inactive)

// for each compound in input: emit GI50
1. CC1(C)CC(=O)c2c(N)n[nH]c2C1
2. CC(C)(C)C(=O)C1CC(=O)c2ccccc2C1=O (stereo not given)
3. CNC(=O)OCc1c(COC(=O)NC)c(-c2ccc(-c3ccccc3)cc2)n(C)c1C
4. O=C1OC(CCCN2CCCCC2)(c2ccccc2)CC12CCCC2 (stereo not given)
5. NN1C(=O)C(CCO)S/C1=N/N=C1/SC(CCO)C(=O)N1N (stereo not given)
6. N#CC1CC(c2ccccc2)Nc2cc(Cl)ccc2N1 (stereo not given)

(A)
> 100 µM (inactive)
35.2 µM (inactive)
7.98 µM (inactive)
> 96.6 µM (inactive)
> 100 µM (inactive)
> 100 µM (inactive)

// for each compound in input: emit GI50
1. COc1ccc2nc(N/N=C/C(C)=N/Nc3cc(C)c4cc(OC)ccc4n3)cc(C)c2c1
2. NC1CCCCC1NCCNC1CCCCC1N (stereo not given)
3. O=C(O)Cn1ccc(=O)c2c([N+](=O)[O-])cccc21
4. S=c1oc(CCCCCCCCc2nn(CNc3ccccc3)c(=S)o2)nn1CNc1ccccc1

(A)
["45.6 µM (inactive)", "> 100 µM (inactive)", "> 100 µM (inactive)", "> 100 µM (inactive)"]
